Data origin, for the record: patent US20260234738A1

# STUDY_TARGET: SARS-COV-2 RBD extracellular domain expressed with a C-terminal mouse IgG2a (SARS-CoV-2)
MEASURED_METRIC: t½

Could you share which t½ value was measured for mAb10935 (antibody, V domains shown) VH: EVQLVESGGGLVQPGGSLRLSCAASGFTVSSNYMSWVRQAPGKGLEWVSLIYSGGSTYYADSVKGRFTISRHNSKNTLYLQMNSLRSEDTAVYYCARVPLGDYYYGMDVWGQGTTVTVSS VL: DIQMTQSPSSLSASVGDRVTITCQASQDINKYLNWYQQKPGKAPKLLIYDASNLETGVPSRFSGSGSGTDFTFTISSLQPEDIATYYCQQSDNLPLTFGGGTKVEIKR ? ≥ 19.2 h

Do the same for mAb10985 (antibody, V domains shown) VH: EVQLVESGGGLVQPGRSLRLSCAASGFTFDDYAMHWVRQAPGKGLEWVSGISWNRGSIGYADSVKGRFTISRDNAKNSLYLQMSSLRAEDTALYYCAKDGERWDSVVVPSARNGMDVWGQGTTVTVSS VL: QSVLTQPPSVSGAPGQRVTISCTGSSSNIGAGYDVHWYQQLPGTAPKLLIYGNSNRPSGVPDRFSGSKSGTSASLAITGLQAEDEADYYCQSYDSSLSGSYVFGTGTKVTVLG please 15.2 h

Do the same for mAb10938 (antibody, V domains shown) VH: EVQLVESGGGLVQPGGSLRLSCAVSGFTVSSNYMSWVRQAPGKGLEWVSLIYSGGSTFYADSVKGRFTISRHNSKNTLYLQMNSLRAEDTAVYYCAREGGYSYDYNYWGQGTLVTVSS VL: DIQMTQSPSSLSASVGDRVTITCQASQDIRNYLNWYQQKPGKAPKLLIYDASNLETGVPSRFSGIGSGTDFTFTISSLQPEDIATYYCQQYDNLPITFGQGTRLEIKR please ≥ 19.2 h

Do the same for mAb10964 (antibody, V domains shown) VH: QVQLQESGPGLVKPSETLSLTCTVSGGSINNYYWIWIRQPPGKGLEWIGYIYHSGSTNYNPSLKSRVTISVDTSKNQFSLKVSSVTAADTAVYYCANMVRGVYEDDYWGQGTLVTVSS VL: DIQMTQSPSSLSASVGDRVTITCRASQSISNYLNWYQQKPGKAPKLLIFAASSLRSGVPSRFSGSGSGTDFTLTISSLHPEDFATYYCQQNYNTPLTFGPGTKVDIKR please ≥ 19.2 h

Do the same for mAb10921 (antibody, V domains shown) VH: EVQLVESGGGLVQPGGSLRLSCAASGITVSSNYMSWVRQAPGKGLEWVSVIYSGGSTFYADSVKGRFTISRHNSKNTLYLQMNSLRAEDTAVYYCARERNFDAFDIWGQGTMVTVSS VL: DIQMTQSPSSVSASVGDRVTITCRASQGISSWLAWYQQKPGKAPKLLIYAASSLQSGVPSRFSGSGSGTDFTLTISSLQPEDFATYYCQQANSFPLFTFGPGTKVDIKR please ≥ 19.2 h
